Provide the reported log10(IC50) of each item.
- tested.system: Kras and SOS1 (biotin-tagged human Kras loaded with GDP, His-tagged human SOS1) (Homo sapiens, UniProt P01116, G12D)
- Construct: made in house; host or cells: E. coli (stated for Kras only)
- Sequence (P01116 1-188 isoform P01116-2 G12D): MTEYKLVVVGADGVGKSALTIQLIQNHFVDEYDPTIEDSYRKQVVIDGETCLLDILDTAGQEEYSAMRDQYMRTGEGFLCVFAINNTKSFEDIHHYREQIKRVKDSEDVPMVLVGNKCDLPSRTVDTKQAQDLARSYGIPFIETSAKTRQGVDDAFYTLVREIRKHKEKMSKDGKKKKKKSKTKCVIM
- run.description: Protein-protein interaction inhibition between Kras and SOS1 (KrasGl2D-SOS PPI) using AlphaScreen
- Format: binding
- particulars: AlphaScreen; biotin-tagged human Kras loaded with GDP, His-tagged human SOS1; read-out: KRAS G12D-SOS PPI IC50
Positions of bridges follow the written chain, without caps; N, C: chain ends. Non-standard residues stand in square brackets, D forms with d. Residues, ends and D or L forms follow the SMILES beside them. *: point of attachment. hPhe(3-Cl-4-CF3) = N[C@@H](CCc1ccc(C(F)(F)F)c(Cl)c1)C(=O)O; hPhe(4-CF3) = N[C@@H](CCc1ccc(C(F)(F)F)cc1)C(=O)O; NMeAbu(4,4,4-F3) = CN[C@@H](CC(F)(F)F)C(=O)O; NMePhe(4-Cl) = CN[C@@H](Cc1ccc(Cl)cc1)C(=O)O; NMeAla(cPent) = CN[C@@H](CC1CCCC1)C(=O)O; NMeGly(cPent) = CN[C@H](C(=O)O)C1CCCC1; NMeCha = CN[C@@H](CC1CCCCC1)C(=O)O; NMeChg = CN[C@H](C(=O)O)C1CCCCC1; NMeD = CN[C@@H](CC(=O)O)C(=O)O; NMeL = CN[C@@H](CC(C)C)C(=O)O; NMeAbu = CC[C@H](NC)C(=O)O; NMeS = CN[C@@H](CO)C(=O)O; Morpholide = C1CN(*)CCO1; NMeA = CN[C@@H](C)C(=O)O; Piperidide = C1CCN(*)CC1; Pyrrolidide = C1CCN(*)C1; Ac5c = NC1(C(=O)O)CCCC1; Cyclopropyl = C1CC1*; Sar = CNCC(=O)O; Propyl = CCC*
All values: base-10 log of IC50 in pM.

Answered examples (4):
CCCOC[C@H]1C(=O)N(C)CC(=O)N[C@@H](CCc2ccc(C(F)(F)F)c(Cl)c2)C(=O)N2CCC[C@H]2C(=O)NC2(CCCC2)C(=O)N(C)[C@@H](C2CCCCC2)C(=O)N(C)[C@H](C(=O)N2CCCC2)CC(=O)N(C)[C@@H](CC(F)(F)F)C(=O)N[C@@H]([C@@H](C)CC)C(=O)N(C)CC(=O)N(C)CC(=O)N1C [Compound 735] ([NMeAbu(4,4,4-F3)]I[Sar][Sar][NMeS](Propyl)[Sar][hPhe(3-Cl-4-CF3)]P[Ac5c][NMeChg][NMeD]-Pyrrolidide; lactam N-11); 2.64
CC[C@H](C)[C@@H]1NC(=O)[C@H](C)N(C)C(=O)C[C@@H](C(=O)N2CCCCC2)N(C)C(=O)[C@H](C2CCCC2)N(C)C(=O)C2(CCCC2)NC(=O)[C@@H]2CCCN2C(=O)[C@H](CCc2ccc(C(F)(F)F)c(Cl)c2)NC(=O)CN(C)C(=O)[C@H](CC2CCCCC2)N(C)C(=O)CN(C)C(=O)CN(C)C1=O [Compound 246] ([NMeA]I[Sar][Sar][NMeCha][Sar][hPhe(3-Cl-4-CF3)]P[Ac5c][NMeGly(cPent)][NMeD]-Piperidide; lactam N-11); 2.48
CC[C@H](C)[C@@H]1NC(=O)[C@H](CC)N(C)C(=O)C[C@@H](C(=O)N2CCOCC2)N(C)C(=O)[C@H](C2CCCCC2)N(C)C(=O)C2(CCCC2)NC(=O)[C@@H]2CCCN2C(=O)[C@H](CCc2ccc(C(F)(F)F)c(Cl)c2)NC(=O)CN(C)C(=O)[C@H](CC2CCCC2)N(C)C(=O)CN(C)C(=O)CN(C)C1=O [Compound 1999] ([NMeAbu]I[Sar][Sar][NMeAla(cPent)][Sar][hPhe(3-Cl-4-CF3)]P[Ac5c][NMeChg][NMeD]-Morpholide; lactam N-11); 2.91
CC[C@H](C)[C@@H]1NC(=O)[C@H](CC(C)C)N(C)C(=O)C[C@@H](C(=O)N2CCCCC2)N(C)C(=O)[C@H](C2CCCCC2)N(C)C(=O)C2(CCCC2)NC(=O)[C@@H]2CCCN2C(=O)[C@H](CCc2ccc(C(F)(F)F)c(Cl)c2)NC(=O)CN(C)C(=O)[C@H](COC2CC2)N(C)C(=O)CN(C)C(=O)CN(C)C1=O [Compound 1731] ([NMeL]I[Sar][Sar][NMeS](Cyclopropyl)[Sar][hPhe(3-Cl-4-CF3)]P[Ac5c][NMeChg][NMeD]-Piperidide; lactam N-11); 3.28

Note: attention shifts to another entry.
Quick note, log10(IC50) for CC[C@H](C)[C@@H]1NC(=O)[C@H](C)N(C)C(=O)C[C@@H](C(=O)N2CCCC2)NC(=O)[C@H](CC(C)C)N(C)C(=O)[C@H](CC2CCCCC2)N(C)C(=O)[C@H](CC(C)C)NC(=O)[C@H](CCc2ccc(C(F)(F)F)cc2)NC(=O)CN(C)C(=O)[C@H](Cc2ccc(Cl)cc2)N(C)C(=O)CN(C)C(=O)CN(C)C1=O [Compound 536] ([NMeA]I[Sar][Sar][NMePhe(4-Cl)][Sar][hPhe(4-CF3)]L[NMeCha][NMeL]D-Pyrrolidide; lactam N-11) landed at 5.36

###

- tested.system: Kras and SOS1 (biotin-tagged human Kras loaded with GDP, His-tagged human SOS1) (Homo sapiens, UniProt P01116, G12D)
- Construct: made in house; host or cells: E. coli (stated for Kras only)
- run.description: Protein-protein interaction inhibition between Kras and SOS1 (KrasGl2D-SOS PPI) using AlphaScreen
- Type: binding
- particulars: AlphaScreen; biotin-tagged human Kras loaded with GDP, His-tagged human SOS1; read-out: KRAS G12D-SOS PPI IC50
Starred links: 1 amine or outer side, 2 acyl side, 3 side chain; linkers in the order of their positions; H or OH if unused. Positions of bridges follow the written chain, without caps; N, C: chain ends. Non-standard residues stand in square brackets, D forms with d. Residues, ends and D or L forms follow the SMILES beside them. *: point of attachment. hPhe(3-Cl-4-CF3) = N[C@@H](CCc1ccc(C(F)(F)F)c(Cl)c1)C(=O)O; X23 = CN([C@@H](Cc1ccccc1OC(F)(F)F)C(=O)[*:2])[*:1]; NMePhe(4-Cl) = CN[C@@H](Cc1ccc(Cl)cc1)C(=O)O; NMePhe(4-Me) = CN[C@@H](Cc1ccc(C)cc1)C(=O)O; Phe(3-I) = N[C@@H](Cc1cccc(I)c1)C(=O)O; NMeI = CC[C@H](C)[C@H](NC)C(=O)O; NMeD = CN[C@@H](CC(=O)O)C(=O)O; NMeL = CN[C@@H](CC(C)C)C(=O)O; d(β3hP) = O=C(O)C[C@H]1CCCN1; NMeA = CN[C@@H](C)C(=O)O; Nle = CCCC[C@H](N)C(=O)O; Piperidide = C1CCN(*)CC1; Ac5c = NC1(C(=O)O)CCCC1; Aze = O=C(O)[C@@H]1CCN1; Sar = CNCC(=O)O
assay.metric: IC50 (nM)
Numbers only, in nM.

CCCC[C@@H]1NC(=O)[C@H](Cc2cccc(I)c2)NC(=O)CN(C)C(=O)[C@H](Cc2ccc(Cl)cc2)N(C)C(=O)CN(C)C(=O)CN(C)C(=O)[C@H]([C@@H](C)CC)NC(=O)[C@H](CC(C)C)N(C)C(=O)C[C@@H](C(=O)N2CCCCC2)N(C)C(=O)[C@H](CC(C)C)NC(=O)[C@H](Cc2ccccc2OC(F)(F)F)N(C)C1=O [Compound 111] ([NMeL]I[Sar][Sar][NMePhe(4-Cl)][Sar][Phe(3-I)][Nle][X23]L[NMeD]-Piperidide; lactam N-11); 100

Note: attention shifts to another entry.
Quick note, IC50 for CC[C@H](C)[C@@H]1NC(=O)[C@H](CC(C)C)N(C)C(=O)C[C@H]2CCCN2C(=O)[C@H]([C@@H](C)CC)N(C)C(=O)C2(CCCC2)NC(=O)[C@@H]2CCCN2C(=O)[C@H](CCc2ccc(C(F)(F)F)c(Cl)c2)NC(=O)CN(C)C(=O)[C@H](Cc2ccc(C)cc2)N(C)C(=O)[C@@H]2CCN2C(=O)[C@H](C)N(C)C1=O [Compound 2003] (cyclo([Ac5c][NMeI][d(β3hP)][NMeL]I[NMeA][Aze][NMePhe(4-Me)][Sar][hPhe(3-Cl-4-CF3)]P)) landed at 8.6
